target_entity: GLP-1R (Homo sapiens, UniProt P43220)
Sequence (P43220 24-463): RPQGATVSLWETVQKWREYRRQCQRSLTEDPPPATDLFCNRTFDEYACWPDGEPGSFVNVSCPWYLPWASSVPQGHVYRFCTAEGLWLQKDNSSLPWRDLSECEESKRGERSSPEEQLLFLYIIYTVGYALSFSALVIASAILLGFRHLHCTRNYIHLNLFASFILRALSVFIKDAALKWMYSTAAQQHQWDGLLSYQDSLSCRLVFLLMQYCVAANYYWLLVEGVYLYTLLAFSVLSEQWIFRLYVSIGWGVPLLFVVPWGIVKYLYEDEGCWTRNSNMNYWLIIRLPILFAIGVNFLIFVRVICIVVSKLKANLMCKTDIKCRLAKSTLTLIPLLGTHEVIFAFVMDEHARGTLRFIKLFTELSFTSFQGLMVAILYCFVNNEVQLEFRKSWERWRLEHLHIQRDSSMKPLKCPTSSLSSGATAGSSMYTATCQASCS
assay_explanation: GLP-1R Activation - cAMP Assay
Assay type: cell-based
assay_conditions: cAMP increase in CHO cells stably expressing GLP-1R; each compound run on one of the two cAMP assays (Assay 1 or Assay 2, not specified)
Sorting guide: entries reporting EC50 beneath 600 pM go in the condition met pile, the rest go in the condition not met pile.

Example entries begin here.
>  <compound>
CC1(C)COC[C@H]1n1c(Cc2cc(F)c(-c3cccc(OCc4ccc(Cl)cc4F)n3)cc2F)nc2ccc(C(=O)O)nc21

>  <assigned_label>
condition not met

$$$$
>  <compound>
CO[C@@H]1COC[C@@H]1n1c(Cc2cc(F)c(-c3cccc(OCc4ccc(C#N)cc4F)n3)cc2F)nc2ccc(C(=O)O)cc21 (single isomer, unassigned)

>  <assigned_label>
condition met

$$$$
>  <compound>
Cc1cc(Cc2nc3ccc(C(=O)O)cc3n2C[C@@H]2CCO2)c(Cl)cc1-c1ccc(F)c(OCc2ccc(C#N)cc2F)n1

>  <assigned_label>
condition not met

$$$$
>  <compound>
CC1(C)COC[C@H]1n1c(Cc2cc(F)c(-c3ccnc(OCc4ccc(Cl)cc4F)n3)cc2F)nc2ccc(C(=O)O)cc21

>  <assigned_label>
condition met

$$$$
>  <compound>
CO[C@@]1(C)COC[C@H]1n1c(Cc2cc(F)c(-c3cccc(OCc4ccc(C#N)cc4F)n3)cc2F)nc2ccc(C(=O)O)cc21 (single isomer, unassigned) [Example 311A]

>  <assigned_label>
condition met

$$$$

input: hey, is EC50 for COCCn1c(Cc2cc(F)c(-c3cccc(OCc4ccc(-c5cnn(C)c5)nc4)n3)cc2F)nc2ccc(C(=O)O)cc21 lower than 600 pM or not?
output: condition not met

input: For COCCn1c(Cc2cc(F)c(-c3cccc(OCc4ccc(OCC(F)(F)F)nc4)n3)cc2F)nc2ccc(C(=O)O)cc21 then?
output: condition not met

input: Follow-up entry: COc1cc(Cl)ncc1COc1nc(-c2cc(F)c(Cc3nc4ccc(C(=O)O)cc4n3[C@@H]3COCC3(C)C)c(F)c2F)ccc1F
output: condition met

###

target_entity: UniProt:P43220
assay_explanation: GLP-1R Activation - cAMP Assay
Type: cell-based
assay_conditions: cAMP increase in CHO cells stably expressing GLP-1R; each compound run on one of the two cAMP assays (Assay 1 or Assay 2, not specified)
# key: entry, value: EC50

>  <molecule>
Cn1cccc(COc2cccc(-c3cc(F)c(Cc4nc5ccc(C(=O)O)cc5n4[C@@H]4COCC4(C)C)cc3F)n2)c1=O [Example 426]

>  <target_entity>
UniProt:P43220

>  <EC50>
1.48 nM

$$$$
>  <molecule>
CC(=O)N1Cc2ccc(COc3cccc(-c4cc(F)c(Cc5nc6ccc(C(=O)O)cc6n5C[C@@H]5CCO5)cc4F)n3)cc2C1 [Example 522]

>  <target_entity>
UniProt:P43220

>  <EC50>
0.165 nM

$$$$
>  <molecule>
O=C(O)c1ccc2nc(Cc3cc(F)c(-c4cccc(OCc5ccc(Cl)cc5F)n4)cc3F)n(C3COC4CC3C4)c2c1 (racemic) [Example 407]

>  <target_entity>
UniProt:P43220

>  <EC50>
0.421 nM

$$$$

input: Provide the documented EC50 with UniProt:P43220 as the system for Cn1nnc2cc(COc3cccc(-c4cc(F)c(Cc5nc6ccc(C(=O)O)cc6n5C[C@@H]5CCO5)cc4F)n3)ccc21 [Example 523]
output: 0.362 nM

input: How about CC1(C)COC[C@H]1n1c(Cc2cc(F)c(-c3cccc(OCc4ccc(-c5cnn(C(F)F)c5)cc4F)n3)cc2F)nc2ccc(C(=O)O)cc21 [Example 443] ?
output: 0.21 nM

input: And the next one, Cn1cc(-c2ccc(COc3cccc(-c4cc(F)c(Cc5nc6ccc(C(=O)O)cc6n5[C@@H]5COCC5(C)C)cc4F)n3)cn2)nn1 [Example 550] ?
output: 0.066 nM

input: Same read-out for COCCn1c(Cc2cc(F)c(-c3cccc(OCc4ccc(-n5ccnn5)cc4F)n3)cc2F)nc2ccc(C(=O)O)c(F)c21 [Example 374] ?
output: 0.571 nM

input: Likewise for Cn1ncc2ccc(COc3cccc(-c4cc(F)c(Cc5nc6ccc(C(=O)O)cc6n5C[C@@H]5CCO5)cc4F)n3)cc21 [Example 524] ?
output: 0.605 nM
